Entry source: PubChem BioAssay (NCI)

Please respond with reported TGI for every item in the list.
Test system: A498 renal
PROTOCOL NOTES: NCI tumour cell line growth inhibition, 48 h

Data point: N#CC(NCCc1ccccc1)c1ccc(C(C#N)NCCc2ccccc2)cc1 (stereo unspecified) ; TGI = > 100 µM

Data point: O=C1C(c2ccccc2)=[N+]([O-])c2ccc(Cl)cc21 ; TGI = > 100 µM

Data point: CN(C)C(=S)/N=c1\ssc(=Nc2ccccc2)n1C ; TGI = > 100 µM

Data point: COCCOc1nc(-c2ccccc2)nc2ccccc12 ; TGI = 70 µM

Data point: CN1C(=O)N(C)C2(O)c3ccccc3C(=O)C12O (stereo unspecified) ; TGI = > 100 µM

Data point: CN(C)N=Nc1cn[nH]c1C(N)=O ; TGI = > 100 µM

Data point: CCCCS/C(=C(/C#N)C(N)=O)c1cc2c([nH]1)CCCC2 ; TGI = 31.4 µM

Data point: CCCCC1(C2c3ccccc3Oc3ccccc32)C(=O)N(c2ccccc2)N(c2ccccc2)C1=O ; TGI = > 100 µM

Data point: CCOC(=O)c1cc2c([nH]1)c(OC(C)=O)cc1c2ccn1Cc1ccccc1 ; TGI = > 100 µM

Data point: CCNC(=O)N1CCc2c(Cl)c3c(c(OC)c2[C@@H]1[C@H]1OCc2c1ccc(OC)c2OC)OCCO3 ; TGI = 7.91 µM

Data point: O=c1cc(/C=C/c2ccc(O)c(O)c2)cc(/C=C/c2ccc(O)c(O)c2)o1 ; TGI = 23.4 µM

====

Please respond with reported TGI for every item in the list.
System: CCRF-CEM leukemia
PROTOCOL NOTES: NCI tumour cell line growth inhibition, 48 h

Result for O=c1[nH]nc(-c2nn(-c3ccc(Cl)cc3)cc2O)o1 , tested on CCRF-CEM leukemia, TGI: > 62.1 µM

Result for COc1ccc(/C=C2\C(=O)NC(=O)c3ccccc32)cc1OC , tested on CCRF-CEM leukemia, TGI: 21.9 µM

Result for NCCSSC/C=C\CSSCCN , tested on CCRF-CEM leukemia, TGI: 68.6 µM

Result for COc1ccc(N)c(C(=O)CCNC(C)=O)c1 , tested on CCRF-CEM leukemia, TGI: > 100 µM

Result for COC(=O)C(C)NP(=O)(OCc1ccc(Cn2cnc3c(N)ncnc32)cc1)Oc1ccccc1 (stereo not given) , tested on CCRF-CEM leukemia, TGI: > 100 µM

Result for CCCCCCC(O)(c1ccc(F)cc1)C(CN1CCOCC1)c1ccccc1 (stereo not given) , tested on CCRF-CEM leukemia, TGI: 32.9 µM

Result for Cc1c(C)n(COCCO)c2ncnc(N)c12 , tested on CCRF-CEM leukemia, TGI: > 100 µM

Result for Cn1cc(-c2csc(-c3c[nH]c4ccccc34)n2)c2cccnc21 , tested on CCRF-CEM leukemia, TGI: > 100 µM

Result for O=S(=O)(Nc1nccs1)c1ccc(Nc2nc(-c3cccs3)nc3ccc(I)cc23)cc1 , tested on CCRF-CEM leukemia, TGI: > 19.9 µM

Result for O=C(O)C(CO)N=Cc1nc(-c2ccccc2)oc1O (stereo not given) , tested on CCRF-CEM leukemia, TGI: > 100 µM

====

System: 786-0 renal
PROTOCOL NOTES: NCI tumour cell line growth inhibition, 48 h; in the data active = GI50 below about 0.43 µM; inactive = the rest
Pick one and only one: 1 = active, -1 = inactive

**Q:** Check the results log: what was the call for COc1ccc(CCc2nc3cc(-c4c(C)noc4C)ccc3n2CCN2CCOCC2)cc1 ?
**A:** -1

**Q:** Check the results log: what was the call for CCCCCC[n+]1noc(N)c1-c1ccc(-c2c(N)on[n+]2CCCCCC)cc1 ?
**A:** -1

**Q:** Check the results log: what was the call for COc1cc2nccc(Oc3ccc(NC(=O)C4(C(=O)Nc5ccc(F)cc5)CC4)cc3)c2cc1OC(=O)c1ccc(N)cc1 ?
**A:** -1

**Q:** Check the results log: what was the call for C#CCNCCCN1C(=O)c2ccc3c4c(ccc(c24)C1=O)C(=O)N(CCCNCC#C)C3=O ?
**A:** -1

**Q:** Check the results log: what was the call for O=C(NNC(=O)c1ccccc1S)c1ccccc1S ?
**A:** -1

**Q:** Check the results log: what was the call for Nc1c(C(=O)N/N=C/c2ccco2)cnn1-c1ccnc2c(C(F)(F)F)cccc12 ?
**A:** -1

**Q:** Check the results log: what was the call for COc1cc2c3c(n(CCCN)c(=O)c2cc1OC)-c1ccc(N(C)C)cc1C3=O ?
**A:** -1

**Q:** Check the results log: what was the call for COC(=O)C(C)NP(=O)(OCc1ccc(Cn2cnc3c(N)ncnc32)cc1)Oc1ccccc1 (stereo unspecified) ?
**A:** -1

**Q:** Check the results log: what was the call for Cn1cc(C2=C(n3ccc4ccccc43)C(=O)NC2=O)c2ccccc21 ?
**A:** -1

**Q:** Check the results log: what was the call for C#CC#CC#CC#CC#CC#CC#CC#CC[C@@H]1OC[C@H](COC(=O)O[C@@H](C(=O)O[C@H]2C[C@@]3(O)[C@@H](OC(=O)c4ccccc4)[C@@H]4[C@]5(OC(C)=O)CO[C@@H]5C[C@H](O)[C@@]4(C)C(=O)[C@H](OC(C)=O)C(=C2C)C3(C)C)[C@@H](NC(=O)c2ccccc2)c2ccccc2)O1 ?
**A:** -1

**Q:** Check the results log: what was the call for CCOC(=O)c1cc(C(=O)c2cc(OC)c(OC)c(OC)c2)n2nc(C)ccc12 ?
**A:** 1

**Q:** Check the results log: what was the call for COc1cc2c(cc1OCCCCCN1CCN(CCCCCOc3cc4c(cc3OC)C(=O)C3CCC[C@H]3C=N4)CC1)N=C[C@@H]1CCCC1C2=O (stereo partly specified) ?
**A:** -1

**Q:** Check the results log: what was the call for CC(=O)/C(=C\c1c(-c2ccccc2)[nH]c2ccccc12)S(C)(=O)=O ?
**A:** -1

**Q:** Check the results log: what was the call for Cc1cccc(-n2cnc3cc(C(=O)N4CCCCC4)ccc32)c1 ?
**A:** -1

**Q:** Check the results log: what was the call for Cn1cc(-c2csc(-c3c[nH]c4ccccc34)n2)c2cccnc21 ?
**A:** -1

**Q:** Check the results log: what was the call for O=c1cc(/C=C/c2ccc(O)c(O)c2)cc(/C=C/c2ccc(O)c(O)c2)o1 ?
**A:** -1
